- protocol: Inhibition of influenza A virus RNA-dependent RNA polymerase subunit PA endonuclease activity
test readout: pIC50

Please report the measured pIC50 for CC/C(O)=C1/C(=O)N(O)c2cc(NC(=O)c3cnc4ccccc4n3)ccc21
5

Please look at this compound and report its pIC50: Cc1nc(NCC(=O)O)sc1S(=O)(=O)Nc1ccc2c(c1)N(O)C(=O)/C2=C(\O)c1ccccc1
4.49

Using the record for O=C(Nc1ccc2c(c1)N(O)C(=O)/C2=C(\O)c1ccccc1)c1cccs1 , state its measured pIC50.
4.7

Give the value of pIC50 reported for the following: O=C(Nc1ccc2c(c1)N(O)C(=O)/C2=C(\O)c1ccccc1)c1ccc(Cl)cc1Cl
4.42

Determine its reported pIC50: O=C(Nc1ccc2c(c1)N(O)C(=O)/C2=C(\O)c1ccccc1)C1CCCCC1
4.75

# return recorded pIC50 for input CCC(=O)c1c(O)n(O)c2cc(NC(=O)c3ccc(Cl)cc3Cl)ccc12
4.35

State its pIC50: CC/C(O)=C1/C(=O)N(O)c2cc(NC(=O)Nc3cccc(C(=O)O)c3)ccc21
5

Retrieve pIC50 measured for C/C(O)=C1/C(=O)N(O)c2cc(NC(=O)c3cnc4ccccc4n3)ccc21 and print it.
4.96

Determine from records and report pIC50 for O=C(O)/C(O)=C/C(=O)C1(Cc2ccc(Cl)cc2)CCCN(S(=O)(=O)Cc2ccccc2)C1 (centres undefined)
6.72

FYI, the data here is from ChEMBL document CHEMBL3102778.
